Source of measurements: the supplement of paper PMC7877785

experiment.summary: self-splicing fitness, log relative to wild type (ln ratio); higher = more splicing; Tetrahymena group I intron in knt gene, E. coli kanamycin selection, DiMSum; sequences stand for … in CUCUCU…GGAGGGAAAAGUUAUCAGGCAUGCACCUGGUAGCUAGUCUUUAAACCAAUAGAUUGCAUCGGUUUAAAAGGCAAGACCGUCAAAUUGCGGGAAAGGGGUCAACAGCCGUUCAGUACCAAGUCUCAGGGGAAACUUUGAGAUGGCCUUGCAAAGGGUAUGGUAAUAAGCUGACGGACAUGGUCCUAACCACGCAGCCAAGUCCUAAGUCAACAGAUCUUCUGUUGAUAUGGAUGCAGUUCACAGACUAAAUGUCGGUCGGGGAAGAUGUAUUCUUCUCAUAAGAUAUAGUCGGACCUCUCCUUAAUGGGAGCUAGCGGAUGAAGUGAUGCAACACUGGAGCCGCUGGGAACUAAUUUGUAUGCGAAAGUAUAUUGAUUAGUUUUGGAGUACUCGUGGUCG;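 further: selection with 25 µg/mL kanamycin versus none on LB agar overnight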
reported.conditions: 37 °C
The reader will find reported self-splicing fitness (ln) values listed item by item below.
When you answer, write just the number.

Here is how some sequences turned out for self-splicing fitness (ln).
- biosequence: "CGCCAGCAAUAUUACGUUGU"
  value.kind: "self-splicing fitness (ln)"
  assay.value: -3.07
- biosequence: "UGUAAGCAAUAUUACGACAA"
  value.kind: "self-splicing fitness (ln)"
  assay.value: -0.666
- biosequence: "UGGGAGCAAUAUUACGAUCG"
  value.kind: "self-splicing fitness (ln)"
  assay.value: -0.561

# self-splicing fitness (ln) lookup, item `GCAUAGCAAUAUUACGUGAC`
-0.677

# self-splicing fitness (ln) lookup, item `GCAAAGCAAUAUUACGAGGA`
-1.83

# self-splicing fitness (ln) lookup, item `AUGUAGCAAUAUUACGAACU`
0.131

# self-splicing fitness (ln) lookup, item `UCACAGCAAUAUUACGUCAU`
-1.43

# self-splicing fitness (ln) lookup, item `CAGCAGCAAUAUUACGGGCC`
-2.78

* * *

experiment.summary: self-splicing fitness, log relative to wild type (ln ratio); higher = more splicing; Tetrahymena group I intron in knt gene, E. coli kanamycin selection, DiMSum; sequences stand for … in CUCUCU…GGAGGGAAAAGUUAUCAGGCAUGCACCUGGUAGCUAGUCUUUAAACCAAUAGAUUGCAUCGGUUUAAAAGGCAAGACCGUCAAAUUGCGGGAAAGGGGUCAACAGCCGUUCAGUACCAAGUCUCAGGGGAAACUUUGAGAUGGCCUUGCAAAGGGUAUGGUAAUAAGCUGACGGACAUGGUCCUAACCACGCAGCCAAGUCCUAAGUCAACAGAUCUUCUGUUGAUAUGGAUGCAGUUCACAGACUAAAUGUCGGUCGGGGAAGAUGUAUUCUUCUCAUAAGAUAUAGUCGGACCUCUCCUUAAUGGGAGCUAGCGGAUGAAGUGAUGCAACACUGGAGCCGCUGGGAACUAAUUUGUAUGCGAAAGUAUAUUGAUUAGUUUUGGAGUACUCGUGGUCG
reported.conditions: 37 °C
We use -0.9 as the dividing line for self-splicing fitness (ln): on or above the line is true, below is false.

- biosequence: "CGAAAGCAAUAUUACGCGCU"
  classification: "false"
- biosequence: "ACCAAGCAAUAUUACGGGCG"
  classification: "true"

Record `GUUUAGCAAUAUUACGGUCG` ; criterion: self-splicing fitness (ln) no lower than -0.9. Met?
true

Record `GUUUAGCAAUAUUACGGAGA` ; criterion: self-splicing fitness (ln) no lower than -0.9. Met?
false

Record `GAGGAGCAAUAUUACGCCUA` ; criterion: self-splicing fitness (ln) no lower than -0.9. Met?
false

Record `UAGGAGCAAUAUUACGACUU` ; criterion: self-splicing fitness (ln) no lower than -0.9. Met?
true

Record `GCUUAGCAAUAUUACGGACC` ; criterion: self-splicing fitness (ln) no lower than -0.9. Met?
true

Record `GGUGAGCAAUAUUACGUCUA` ; criterion: self-splicing fitness (ln) no lower than -0.9. Met?
false

Record `GUGCAGCAAUAUUACGUACG` ; criterion: self-splicing fitness (ln) no lower than -0.9. Met?
false

Record `GUAAAGCAAUAUUACGUAAA` ; criterion: self-splicing fitness (ln) no lower than -0.9. Met?
true

Record `AUACAGCAAUAUUACGUAUU` ; criterion: self-splicing fitness (ln) no lower than -0.9. Met?
false

Record `AGAGAGCAAUAUUACGUCAU` ; criterion: self-splicing fitness (ln) no lower than -0.9. Met?
false

Record `GAGGAGCAAUAUUACGCUGA` ; criterion: self-splicing fitness (ln) no lower than -0.9. Met?
false

Record `AGAUAGCAAUAUUACGUAAG` ; criterion: self-splicing fitness (ln) no lower than -0.9. Met?
false

Record `UAUAAGCAAUAUUACGAAGA` ; criterion: self-splicing fitness (ln) no lower than -0.9. Met?
false

* * *

experiment.summary: self-splicing fitness, log relative to wild type (ln ratio); higher = more splicing; Tetrahymena group I intron in knt gene, E. coli kanamycin selection, DiMSum; sequences stand for … in CUCUCU…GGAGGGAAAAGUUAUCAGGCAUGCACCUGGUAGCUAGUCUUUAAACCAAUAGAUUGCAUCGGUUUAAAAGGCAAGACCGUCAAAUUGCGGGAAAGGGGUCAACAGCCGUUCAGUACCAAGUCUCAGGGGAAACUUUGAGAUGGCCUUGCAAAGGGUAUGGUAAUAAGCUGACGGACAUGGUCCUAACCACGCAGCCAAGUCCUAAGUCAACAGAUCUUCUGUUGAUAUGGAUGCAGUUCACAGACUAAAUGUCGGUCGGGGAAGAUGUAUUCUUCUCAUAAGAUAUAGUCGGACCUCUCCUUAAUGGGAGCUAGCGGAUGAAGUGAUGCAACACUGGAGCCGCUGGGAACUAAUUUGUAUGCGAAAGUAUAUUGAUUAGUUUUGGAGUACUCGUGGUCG
reported.conditions: 30 °C
value.kind: self-splicing fitness (ln)

Here is how some sequences turned out for self-splicing fitness (ln).
- biosequence: "CGGCAGCAAUAUUACGGUGC"
  self-splicing fitness (ln): -2.88
- biosequence: "AACGAGCAAUAUUACGGCUG"
  self-splicing fitness (ln): -1.6
- biosequence: "AAUUAGCAAUAUUACGGCUG"
  self-splicing fitness (ln): -0.324
- biosequence: "ACCUAGCAAUAUUACGUUCU"
  self-splicing fitness (ln): -1.08
- biosequence: "CAUUAGCAAUAUUACGUGAA"
  self-splicing fitness (ln): -2.94

# self-splicing fitness (ln) lookup, item `UUAAAGCAAUAUUACGUGCA`
-0.0172

# self-splicing fitness (ln) lookup, item `CUAAAGCAAUAUUACGCCCG`
0.465

# self-splicing fitness (ln) lookup, item `GGUAAGCAAUAUUACGCGCC`
-2.99

* * *

experiment.summary: self-splicing fitness, log relative to wild type (ln ratio); higher = more splicing; Tetrahymena group I intron in knt gene, E. coli kanamycin selection, DiMSum; sequences stand for … in CUCUCU…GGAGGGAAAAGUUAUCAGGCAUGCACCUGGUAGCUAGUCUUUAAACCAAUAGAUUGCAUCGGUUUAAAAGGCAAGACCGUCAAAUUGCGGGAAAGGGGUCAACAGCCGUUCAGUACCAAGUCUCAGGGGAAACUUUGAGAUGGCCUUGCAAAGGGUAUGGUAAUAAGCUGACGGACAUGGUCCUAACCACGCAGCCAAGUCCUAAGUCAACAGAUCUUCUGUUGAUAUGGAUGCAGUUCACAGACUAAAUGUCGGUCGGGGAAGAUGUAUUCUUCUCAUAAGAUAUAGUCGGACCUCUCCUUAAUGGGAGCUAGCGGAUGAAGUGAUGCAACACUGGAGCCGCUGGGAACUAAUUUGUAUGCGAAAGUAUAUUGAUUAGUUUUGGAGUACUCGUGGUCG
reported.conditions: 37 °C
We use -0.03 as the dividing line for self-splicing fitness (ln): on or above the line is condition met, below is condition not met.

Worked examples, 10 sequences total:
- biosequence: "GGAUAGCAAUAUUACGGUUA"
  classification: "condition met"
- biosequence: "UGAAAGCAAUAUUACGAGCG"
  classification: "condition not met"
- biosequence: "CGGCAGCAAUAUUACGGGAC"
  classification: "condition not met"
- biosequence: "GGCAAGCAAUAUUACGGUAA"
  classification: "condition met"
- biosequence: "GUGAAGCAAUAUUACGUGCG"
  classification: "condition met"
- biosequence: "CUGUAGCAAUAUUACGGCUU"
  classification: "condition not met"
- biosequence: "AUCGAGCAAUAUUACGGGCU"
  classification: "condition not met"
- biosequence: "AUUAAGCAAUAUUACGUAUA"
  classification: "condition not met"
- biosequence: "UGGAAGCAAUAUUACGUGGC"
  classification: "condition not met"
- biosequence: "AUCGAGCAAUAUUACGUGCU"
  classification: "condition not met"

Record `AAAAAGCAAUAUUACGUUCA` ; criterion: self-splicing fitness (ln) no lower than -0.03. Met?
condition met

Record `CCCCAGCAAUAUUACGUUGA` ; criterion: self-splicing fitness (ln) no lower than -0.03. Met?
condition not met

Record `UGGAAGCAAUAUUACGUUGA` ; criterion: self-splicing fitness (ln) no lower than -0.03. Met?
condition not met

Record `UUUAAGCAAUAUUACGACAG` ; criterion: self-splicing fitness (ln) no lower than -0.03. Met?
condition not met

Record `CAAAAGCAAUAUUACGAUCG` ; criterion: self-splicing fitness (ln) no lower than -0.03. Met?
condition met
